Test system: Klebsiella pneumoniae
Test: Growth inhibition of Klebsiella pneumoniae ATCC BAA-2146
Parameter: MIC. Scope: all listed entries.

Examples with their reported MIC follow.
N[C@@H](CN[C@@H](CN1CCC[C@H]1C(=O)O)C(=O)O)C(=O)O
> 280 µg/mL
COC(=O)C[C@H](NC[C@H](NC[C@H](N)C(=O)O)C(=O)O)C(=O)OC
> 298 µg/mL

Below: the item to evaluate.
-- ask // returns reported MIC for input COC(=O)[C@H](CN[C@@H](CC(=O)O)C(=O)O)NC[C@H](N)C(=O)OC
-- reply > 298 µg/mL
